Data provenance is PubChem BioAssay (EPA / NIEHS).

TARGET_OR_SYSTEM: Signal transducer and activator of transcription 3 (Homo sapiens)
ASSAY_NOTES: ATG_STAT3_CIS: Attagene CIS-FACTORIAL HepG2 Assay for human Signal Transducer and Activator of Transcription 3 (STAT3) (AID 2282963)
EXPERIMENTAL_CONDITIONS: HepG2, Attagene cis-factorial STAT3 reporter transcription; actives raise or lower the signal
The source made the active and inactive calls. How the source made its calls: active means hit-call score of the fitted dose curve at least 0.9, where 1 is the maximum; inactive means score below 0.9.
Just give me one of these, please: YES = active, NO = inactive

Exercise: Recorded call for CN1COCN(Cc2cnc(Cl)s2)C1=N[N+](=O)[O-] ?
Solution: NO

Exercise: Recorded call for COc1cc(OC)nc(Sc2cccc(Cl)c2C(=O)O)n1 ?
Solution: NO

Exercise: Recorded call for CNC(=O)ON=C(C)SC ?
Solution: NO

Exercise: Recorded call for CCOP(=S)(Oc1cnc(C(C)(C)C)nc1)OC(C)C (stereo not given) ?
Solution: NO

Exercise: Recorded call for CSC1=N[C@@](C)(c2ccccc2)C(=O)N1Nc1ccccc1 ?
Solution: NO

Exercise: Recorded call for CCOP(=O)(OCC)Oc1cc(C)nc(C(C)C)n1 ?
Solution: NO

Exercise: Recorded call for CC(C)=CC1C(C(=O)OCN2C(=O)C3=C(CCCC3)C2=O)C1(C)C (stereo not given) ?
Solution: NO

Exercise: Recorded call for CC(C1CC1)C(O)(Cn1cncn1)c1ccc(Cl)cc1 (stereo not given) ?
Solution: NO

Exercise: Recorded call for CN(C)C(=O)Nc1cccc(C(F)(F)F)c1 ?
Solution: NO

Exercise: Recorded call for CC(C)[C@H](C(=O)O[C@H](C#N)c1cccc(Oc2ccccc2)c1)c1ccc(Cl)cc1 ?
Solution: NO

Exercise: Recorded call for CCc1cccc(CC)c1N(COC)C(=O)CCl ?
Solution: NO

Exercise: Recorded call for CC(=NC#N)N(C)Cc1ccc(Cl)nc1 ?
Solution: NO

Exercise: Recorded call for COP(=O)(OC)OC(Br)C(Cl)(Cl)Br (stereo not given) ?
Solution: NO

Exercise: Recorded call for Cc1ccn2nc(S(=O)(=O)Nc3c(F)cccc3F)nc2n1 ?
Solution: NO

Exercise: Recorded call for CCOP(=S)(OCC)Oc1ccc2c(C)c(Cl)c(=O)oc2c1 ?
Solution: NO

Exercise: Recorded call for C#CC(C)(C)NC(=O)c1cc(Cl)cc(Cl)c1 ?
Solution: NO

Exercise: Recorded call for N#CSCSC#N ?
Solution: NO

Exercise: Recorded call for CCCCN(CC)c1c([N+](=O)[O-])cc(C(F)(F)F)cc1[N+](=O)[O-] ?
Solution: NO

Exercise: Recorded call for CSc1nnc(C(C)(C)C)c(=O)n1N ?
Solution: NO

Exercise: Recorded call for CCOP(=O)(SC(C)CC)N1CCSC1=O (stereo not given) ?
Solution: NO

Exercise: Recorded call for C=C(C)[C@H]1Cc2c(ccc3c2O[C@@H]2COc4cc(OC)c(OC)cc4[C@@H]2C3=O)O1 ?
Solution: NO

Exercise: Recorded call for CC1=NNC(=O)N(/N=C/c2cccnc2)C1 ?
Solution: NO

Exercise: Recorded call for CCc1cnc(C2=NC(C)(C(C)C)C(=O)N2)c(C(=O)O)c1 (stereo not given) ?
Solution: NO

Exercise: Recorded call for CN(C)[C@@H]1C(=O)C(C(N)=O)=C(O)[C@@]2(O)C(=O)C3=C(O)c4c(O)cccc4[C@@](C)(O)[C@H]3[C@H](O)[C@@H]12 ?
Solution: NO

Exercise: Recorded call for CCCSP(=O)(OCC)SCCC ?
Solution: NO

Exercise: Recorded call for COc1cccc(C(=O)NN(C(=O)c2cc(C)cc(C)c2)C(C)(C)C)c1C ?
Solution: NO

Exercise: Recorded call for CCCCSP(=O)(SCCCC)SCCCC ?
Solution: YES

Exercise: Recorded call for FC(F)C(F)(F)OCC(Cn1cncn1)c1ccc(Cl)cc1Cl (stereo not given) ?
Solution: NO

Exercise: Recorded call for CC(Oc1cccc(Cl)c1)C(=O)O (stereo not given) ?
Solution: NO

Exercise: Recorded call for CCNc1nc(Cl)nc(NC(C)(C)C#N)n1 ?
Solution: NO

###

Read-out: E-selectin (Homo sapiens) (UniProt P16581)
Sequence (P16581 whole entry, looked up): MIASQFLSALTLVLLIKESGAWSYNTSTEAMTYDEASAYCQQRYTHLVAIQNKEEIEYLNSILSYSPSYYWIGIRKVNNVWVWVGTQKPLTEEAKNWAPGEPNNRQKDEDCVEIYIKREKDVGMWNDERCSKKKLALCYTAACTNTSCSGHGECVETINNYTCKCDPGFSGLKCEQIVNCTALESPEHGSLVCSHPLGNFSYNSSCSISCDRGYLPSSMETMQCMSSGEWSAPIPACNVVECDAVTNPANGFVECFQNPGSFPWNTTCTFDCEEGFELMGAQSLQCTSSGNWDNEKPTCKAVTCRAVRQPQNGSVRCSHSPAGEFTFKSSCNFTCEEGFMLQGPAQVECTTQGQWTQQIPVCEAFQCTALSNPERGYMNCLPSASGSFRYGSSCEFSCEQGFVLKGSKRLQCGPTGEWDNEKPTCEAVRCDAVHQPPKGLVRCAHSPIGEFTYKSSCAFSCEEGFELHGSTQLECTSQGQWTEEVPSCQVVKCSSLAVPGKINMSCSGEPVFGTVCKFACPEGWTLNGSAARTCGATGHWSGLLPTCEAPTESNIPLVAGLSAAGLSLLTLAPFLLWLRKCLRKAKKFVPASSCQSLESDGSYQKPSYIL
ASSAY_NOTES: BSK_SAg_Eselectin: BioMAP Diversity Plus: SAg Assay for Eselectin Biomarker Activity (AID 2283091)
EXPERIMENTAL_CONDITIONS: primary human HUVEC with PBMC; actives raise or lower the signal
The source made the active and inactive calls. How the source made its calls: active means hit-call score of the fitted dose curve at least 0.9, where 1 is the maximum; inactive means score below 0.9.
Just give me one of these, please: TRUE = active, FALSE = inactive

Exercise: Recorded call for Cc1nn(-c2cc(NS(C)(=O)=O)c(Cl)cc2Cl)c(=O)n1C(F)F ?
Solution: FALSE

Exercise: Recorded call for CCC(CC)Nc1c([N+](=O)[O-])cc(C)c(C)c1[N+](=O)[O-] ?
Solution: TRUE

Exercise: Recorded call for C[Si](Cn1cncn1)(c1ccc(F)cc1)c1ccc(F)cc1 ?
Solution: TRUE

Exercise: Recorded call for S=C1NCCN1 ?
Solution: FALSE

Exercise: Recorded call for CCOP(=S)(Oc1cnc(C(C)(C)C)nc1)OC(C)C (stereo not given) ?
Solution: TRUE

###

ASSAY_NOTES: BSK_CASM3C_SRB: Viability Assessment in the BioMAP Diversity Plus: CASM3C Assay (AID 2283050);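 further: total protein by SRB staining as cytotoxicity measure in parallel cultures; cells exposed to compound for 24 h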
EXPERIMENTAL_CONDITIONS: primary human coronary artery smooth muscle cells
Activity calls are given as the source filed them. Rule for the calls: active = hit-call score of the fitted dose curve at least 0.9, where 1 is the maximum; inactive = score below 0.9.
OUTCOME_MEASURE: AC50

Some solved cases for reference:
Form: compound = CCCSP(=O)(OCC)Oc1ccc(Br)cc1Cl (configuration not stated) ; AC50 = inactive

Form: compound = CCOP(=S)(OCC)SCCSCC ; AC50 = inactive

Form: compound = CCOP(=O)(SC(C)CC)N1CCSC1=O (configuration not stated) ; AC50 = inactive

Form: compound = CCCSP(=O)(OCC)SCCC ; AC50 = inactive

Continuing:
Form: compound = CN(C)C(=O)Nc1cccc(C(F)(F)F)c1 ; AC50 = inactive

Form: compound = CC[C@H](C)[C@H]1O[C@]2(C=C[C@@H]1C)C[C@@H]1C[C@@H](C/C=C(\C)[C@@H](O[C@H]3C[C@H](OC)[C@@H](O[C@H]4C[C@H](OC)[C@@H](NC)[C@H](C)O4)[C@H](C)O3)[C@@H](C)/C=C/C=C3\CO[C@@H]4[C@H](O)C(C)=C[C@@H](C(=O)O1)[C@]34O)O2 ; AC50 = 11.6 µM (active)

###

Read-out: UDP glucuronosyltransferase (UGT1A1), UGT1A1 (gene 54658)
ASSAY_NOTES: LTEA_HepaRG_UGT1A1: Life Technologies and Expression Analysis (LTEA) Assay for UDP glucuronosyltransferase (UGT1A1) using HepaRG (AID 2283538)
EXPERIMENTAL_CONDITIONS: mRNA level, 48 h; actives raise or lower the signal
Active and inactive are the calls of the source. Rule for the calls: active = hit-call score of the fitted dose curve at least 0.9, where 1 is the maximum; inactive = score below 0.9.
Just give me one of these, please: active, inactive

Exercise: Recorded call for CC(C)N(C(=O)SCC(Cl)=C(Cl)Cl)C(C)C ?
Solution: inactive

Exercise: Recorded call for CC1(C(=O)Nc2ccc(O)c(Cl)c2Cl)CCCCC1 ?
Solution: inactive

Exercise: Recorded call for CC(C)[C@H](C(=O)O[C@H](C#N)c1cccc(Oc2ccccc2)c1)c1ccc(Cl)cc1 ?
Solution: active

Exercise: Recorded call for CCOP(=S)(Oc1cnc(C(C)(C)C)nc1)OC(C)C (configuration not stated) ?
Solution: inactive

Exercise: Recorded call for CCCOCC(=Nc1ccc(Cl)cc1C(F)(F)F)n1ccnc1 ?
Solution: active

Exercise: Recorded call for CCC(=NOC/C=C/Cl)C1=C(O)CC(C2CCOCC2)CC1=O (configuration not stated) ?
Solution: inactive

Exercise: Recorded call for CN(C)NC(=O)CCC(=O)O ?
Solution: inactive

###

ASSAY_NOTES: BSK_3C_Proliferation: Cell Proliferation Assessment in the BioMAP Diversity Plus: 3C Assay (AID 2283006)
EXPERIMENTAL_CONDITIONS: primary human endothelial cells (HUVEC)
Active and inactive are the calls of the source. How the source made its calls: active means hit-call score of the fitted dose curve at least 0.9, where 1 is the maximum; inactive means score below 0.9.
Just give me one of these, please: yes (1) (active), no (0) (inactive)

Exercise: Recorded call for CC(C)N(C(=O)SCC(Cl)=C(Cl)Cl)C(C)C ?
Solution: yes (1)

Exercise: Recorded call for CC(Oc1cccc(Cl)c1)C(=O)O (stereo not drawn) ?
Solution: no (0)

Exercise: Recorded call for O=C(O)c1cc(Oc2ccc(C(F)(F)F)cc2Cl)ccc1[N+](=O)[O-] ?
Solution: no (0)

Exercise: Recorded call for CCOP(=O)(OCC)Oc1cc(C)nc(C(C)C)n1 ?
Solution: no (0)

Exercise: Recorded call for Nc1c(Cl)cc([N+](=O)[O-])cc1Cl ?
Solution: no (0)

Exercise: Recorded call for CCc1cccc(C)c1N(C(=O)CCl)C(C)COC (stereo not drawn) ?
Solution: no (0)

Exercise: Recorded call for C#CCC1=C(C)C(OC(=O)C2C(C=C(C)C)C2(C)C)CC1=O (stereo not drawn) ?
Solution: yes (1)

Exercise: Recorded call for CC1(C(=O)Nc2ccc(O)c(Cl)c2Cl)CCCCC1 ?
Solution: no (0)

Exercise: Recorded call for Cc1ccn2nc(S(=O)(=O)Nc3c(F)cccc3F)nc2n1 ?
Solution: no (0)

Exercise: Recorded call for CC(COc1ccc(Oc2ccccc2)cc1)Oc1ccccn1 (stereo not drawn) ?
Solution: no (0)

Exercise: Recorded call for CCc1cnc(C2=NC(C)(C(C)C)C(=O)N2)c(C(=O)O)c1 (stereo not drawn) ?
Solution: no (0)

Exercise: Recorded call for FC(F)C(F)(F)OCC(Cn1cncn1)c1ccc(Cl)cc1Cl (stereo not drawn) ?
Solution: yes (1)

Exercise: Recorded call for CCCCN(CC)c1c([N+](=O)[O-])cc(C(F)(F)F)cc1[N+](=O)[O-] ?
Solution: yes (1)

Exercise: Recorded call for C=C(C)[C@H]1Cc2c(ccc3c2O[C@@H]2COc4cc(OC)c(OC)cc4[C@@H]2C3=O)O1 ?
Solution: yes (1)

Exercise: Recorded call for CSc1nc(NC(C)C)nc(NC(C)C)n1 ?
Solution: no (0)

Exercise: Recorded call for CCOP(=S)(OCC)Oc1ccc2c(C)c(Cl)c(=O)oc2c1 ?
Solution: yes (1)

Exercise: Recorded call for CSc1nnc(C(C)(C)C)c(=O)n1N ?
Solution: no (0)

Exercise: Recorded call for COP(=O)(OC)SCn1c(=O)oc2cc(Cl)cnc21 ?
Solution: no (0)
